In this section we review reported Kp at 1 h values for a set of compounds.
Assay: Evaluation of hippocampal distribution in mouse
Type: in vivo
Conditions: hippocampus/plasma, male ICR mice, 10 mg/kg oral, 1 hr after administration, read-out: hippocampus/plasma concentration ratio (mean)
Counter-ions that a name gives are not always drawn.

- compound: "Cc1cc(NC(=O)c2cccc([C@@H]3C[C@H]3NCC3CCOCC3)c2)no1 (relative stereo)"
  Kp at 1 h: 4.5
- compound: "O=C(NC1CCC(F)(F)CC1)c1cccc([C@@H]2C[C@H]2NCC2CC2)c1 (relative stereo) [Example 102, hydrochloride]"
  Kp at 1 h: 1.84
- compound: "Cn1cc(NC(=O)c2cccc([C@@H]3C[C@H]3NC3CCC3)c2)cn1 (relative stereo) [Example 169, dihydrochloride]"
  Kp at 1 h: 0.56
- compound: "Cc1nnc(NC(=O)c2cccc([C@@H]3C[C@H]3NC3CCC(F)(F)CC3)c2)s1 (relative stereo) [Example 167, hydrochloride]"
  Kp at 1 h: 0.74
- compound: "Cn1cc(NC(=O)c2cccc([C@@H]3C[C@H]3NC3CCC(F)(F)CC3)c2)cn1 (relative stereo) [Example 205, dihydrochloride]"
  Kp at 1 h: 0.47
- compound: "Cc1cc(NC(=O)c2cccc([C@@H]3C[C@H]3NC3CCC3)c2)no1 (relative stereo) [Example 232, hydrochloride]"
  Kp at 1 h: 3.66
- compound: "O=C(NC1CC(F)(F)C1)c1cccc([C@@H]2C[C@H]2NC2CCC(F)(F)CC2)c1 (relative stereo) [Example 234, hydrochloride]"
  Kp at 1 h: 1.58

* * *

Assay: Evaluation of hippocampal distribution in mouse
Type: in vivo
Conditions: hippocampus, male ICR mice, 10 mg/kg oral, 1 hr after administration, read-out: hippocampus concentration (mean)
Where a name gives a salt, the structure may show the parent alone.
parameter: log10 concentration at 1 h (log10 of the value in ng/g)

- compound: "O=C(Nc1cnn(CC2CC2)c1)c1cccc([C@@H]2C[C@H]2NCC2CCOCC2)c1 (relative stereo) [Example 87, dihydrochloride]"
  log10 concentration at 1 h: 1.63
- compound: "Cn1cc(NC(=O)c2cccc([C@@H]3C[C@H]3NC3CCC3)c2)cn1 (relative stereo) [Example 169, dihydrochloride]"
  log10 concentration at 1 h: 2.60
- compound: "Cc1nnc(NC(=O)c2cccc([C@@H]3C[C@H]3NC3CCOCC3)c2)s1 (relative stereo) [Example 165, fumarate]"
  log10 concentration at 1 h: 2.58
- compound: "Cc1cc(NC(=O)c2cccc([C@@H]3C[C@H]3NC3CCC3)c2)no1 (relative stereo) [Example 232, hydrochloride]"
  log10 concentration at 1 h: 2.76
- compound: "O=C(NC1CC(F)(F)C1)c1cccc([C@@H]2C[C@H]2NCC2CC2)c1 (relative stereo) [Example 99, hydrochloride]"
  log10 concentration at 1 h: 2.45

* * *

pIC50: −log10 of the molar value. Where a name gives a salt, the structure may show the parent alone.
Data export: pIC50 values recorded with MAO-A enzyme (Homo sapiens (Human), UniProt P21397).
Sequence (P21397 whole entry): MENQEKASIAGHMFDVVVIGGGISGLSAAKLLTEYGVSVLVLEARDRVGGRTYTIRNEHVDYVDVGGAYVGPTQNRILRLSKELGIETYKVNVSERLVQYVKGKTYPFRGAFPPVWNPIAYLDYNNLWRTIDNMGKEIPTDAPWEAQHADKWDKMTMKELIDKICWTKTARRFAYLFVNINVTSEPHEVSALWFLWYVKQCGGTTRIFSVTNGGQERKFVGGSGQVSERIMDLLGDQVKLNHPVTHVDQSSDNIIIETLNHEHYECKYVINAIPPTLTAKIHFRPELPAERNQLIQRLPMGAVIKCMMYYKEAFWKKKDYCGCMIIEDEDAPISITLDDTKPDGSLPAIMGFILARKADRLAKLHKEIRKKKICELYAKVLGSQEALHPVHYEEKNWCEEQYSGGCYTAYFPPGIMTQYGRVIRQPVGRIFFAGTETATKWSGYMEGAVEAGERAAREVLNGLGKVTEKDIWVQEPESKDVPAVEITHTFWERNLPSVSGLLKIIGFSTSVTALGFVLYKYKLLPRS
parameter: pIC50

- compound: "Cc1cc(NC(=O)c2cccc([C@@H]3C[C@H]3NCC3CC3)c2)sn1 (relative stereo) [Example 152, hydrochloride]"
  observedResult: "< 5.00"
- compound: "O=C(c1ccc([C@@H]2C[C@H]2NCC2CC2)cc1)N1Cc2cccnc2C1 (relative stereo) [Example 20, bis(trifluoroacetate)]"
  observedResult: "< 5.00"
- compound: "O=C(Nc1ccc2[nH]c(=O)sc2c1)c1cccc([C@@H]2C[C@H]2NCC2CC2)c1 (relative stereo) [Example 147, trifluoroacetate]"
  observedResult: "< 5.00"
